Test system: PA-1
Assay: Primary qHTS to identify gynecologic anti-cancer compounds using libraries of approved drugs and bioactive compounds (AID 1345084); further: nearly all actives have a fitted effect of over 55% in size
Details: Gynecologic cancer cell panel viability, ATPlite luminescence, 48 h; series mostly up to 57.5 µM
Records with an inconclusive call do not appear. The source made the active and inactive calls. The call rests on the fitted dose curve; in most records, active means well fitted cell-killing curve with a large enough effect; inconclusive means small, poorly fitted or top-dose-only effect, or effect the other way; inactive means flat fitted curve, though single readings scatter.
Select the correct class. Options are yes = active, no = inactive and nothing else.

Solved cases (4 shown):
INPUT: Recorded test call requested for `C=C1[C@H](CO)[C@@H](O)C[C@@H]1n1cnc2c(=O)[nH]c(N)nc21`
OUTPUT: no

INPUT: Recorded test call requested for `C=C1CC[C@H](O)CC1=C/C=C1\CCC[C@]2(C)[C@@H]([C@H](C)/C=C/[C@H](C)C(C)C)CC[C@@H]12`
OUTPUT: no

INPUT: Recorded test call requested for `CC(=O)Nc1ccc(NC(=S)NC(=O)c2ccc(C(C)(C)C)cc2)cc1`
OUTPUT: yes

INPUT: Recorded test call requested for `CCN(CC)CCOCCOC(=O)C(CC)(CC)c1ccccc1`
OUTPUT: no

Attention now turns to another entry.
INPUT: Recorded test call requested for `C/C(=C\C(=O)OCCCCCCCCC(=O)O)C[C@@H]1OC[C@H](C[C@@H]2O[C@H]2[C@@H](C)[C@H](C)O)[C@@H](O)[C@H]1O`
OUTPUT: no
